system: TGFBR1; conditions: concentration: 1 μM, replicates: in singlicate; n = 1;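 further: KINOMEscan kinase panel screen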
Labelling field: enter rule met if recorded %Inh is less than 6%. Enter rule not met if it equals or exceeds that cut-off.

CN(c1ccc(F)c(NC(=O)c2cccc(OC(C)(C)C#N)c2Cl)c1)c1ccc2nc(NC(=O)C3CC3)sc2n1 : rule met
CCNC(=O)/C=C/c1n[nH]c2cc(Sc3ccccc3C(=O)NC)ccc12 : rule met
COc1cccc2c(-c3ccncc3)c(-c3ccc(F)cc3)nn12 : rule not met
O=C(Nc1n[nH]c2nc(-c3ccccc3)ccc12)C1CC1 : rule met
CC(C)c1nc(-c2ccc(F)c(NS(=O)(=O)c3c(F)cccc3F)c2)c(-c2ccnc(Nc3ccc(N4CCOCC4)nc3)n2)s1 : rule not met
Cl.O=C(Nc1ccc(Oc2ccc3[nH]c(NC(=O)c4ccco4)nc3c2)cc1)Nc1cc(C(F)(F)F)ccc1F : rule met
Cn1cc(-c2ccc3c(c2)CCN3C(=O)Cc2cc(F)cc(C(F)(F)F)c2)c2c(N)ncnc21 : rule met
Nc1cccc(-c2ccc3c(N)n[nH]c3c2)c1 : rule met

## Task Quick check: does CC(C)NCC(Cc1ccccc1)NC(=O)c1cc(Br)c(-c2ccnc3[nH]ccc23)s1.Cl.Cl (stereo not drawn) have %Inh under 6%?
## Result rule met

## Task Does the reported %Inh of CCn1cnc2c(NCc3ccccc3)ncnc21 stay below 6%?
## Result rule not met

## Task Confirm or reject: %Inh of CSc1ccc(NC2=C(c3ccc(Cl)cc3)C(=O)NC2=O)cc1 lies strictly below 6%
## Result rule not met

## Task Does this compound meet the criterion %Inh < 6%? CN1CCN(Cc2ccc(NC(=O)Nc3ccc(N(C)c4ccnc(Nc5ccc(CS(C)(=O)=O)cc5)n4)cc3)cc2)CC1.Cl
## Result rule not met

## Task Decide: %Inh of CN(C)CCNS(=O)(=O)c1ccc(-c2ccnc3[nH]ccc23)cc1 strictly below 6%?
## Result rule met

## Task %Inh strictly < 6% for this compound? Cc1ccc(NC(=O)c2ccc(Cl)c(Cl)c2)cc1-c1ccc(C(=O)Nc2ccncc2)cc1
## Result rule met

## Task Please determine if COc1cc(Nc2ccnc3cc(-c4ccncc4)ccc23)cc(OC)c1OC.Cl is below 6% in terms of %Inh.
## Result rule not met

## Task Consider the compound CC(C)(C)c1ccc(C(=O)Nc2cn3cc(-n4ccnc4)ccc3n2)cc1 . Is its %Inh strictly less than 6%?
## Result rule met

## Task %Inh under 6%? Item: CC(=O)Nc1cn2nc(Oc3cccc(NC(=O)c4cccc(C(F)(F)F)c4)c3)ccc2n1
## Result rule not met

## Task Say whether its %Inh is strictly beneath 6%. Entry: Cl.Cl.NCC(NC(=O)c1cc(-c2cccnc2)c(-c2ccnc3[nH]ccc23)s1)c1ccccc1 (stereo not drawn)
## Result rule not met

## Task Field: below-cutoff. Rule: recorded %Inh strictly less than 6%. Subject: COc1cccc(NC(=O)NCCNc2ccnc(Nc3ccc(F)cc3)n2)c1
## Result rule not met

## Task Just wondering, is %Inh of CCn1c(-c2nonc2N)nc2c(-c3ccccc3)ncc(OCCCN)c21.O=C(O)C(F)(F)F.O=C(O)C(F)(F)F below 6%?
## Result rule not met

## Task # check: %Inh < 6% for COC(=O)Nc1nc2ccc(Oc3ccc(NC(=O)Nc4cc(C(F)(F)F)ccc4F)cc3)cc2[nH]1.Cl
## Result rule met
